Just for reference, PubChem BioAssay (NCI) is where these values come from.

Tested on: K-562 leukemia
Assay: NCI tumour cell line growth inhibition, 48 h; in the data active means GI50 below about 0.43 µM; inactive means the rest
Outcomes: Y = active, N = inactive

{"columns": ["test_smiles", "test_target", "group_label"],
 "data": [
  ["O=C1C2=C(C(=O)c3c(O)ccc(O)c31)N(c1cccnc1)Cc1ccccc1O2", "K-562 leukemia", "Y"],
  ["Cc1ccccc1NC(=O)N/C(N)=N/c1nc(C)c(C)s1", "K-562 leukemia", "Y"],
  ["CN(Cc1ccccc1)c1ncnc2ccc(Br)cc12", "K-562 leukemia", "N"],
  ["CS(=O)(=O)c1nccc(-c2c(-c3cccc(OCc4ccccc4)c3)nc3sccn23)n1", "K-562 leukemia", "N"],
  ["[O-]c1ccccc1[C-]=Nc1ccccc1O.[O-]c1ccccc1[C-]=Nc1ccccc1O.[O]=[U]=[O]", "K-562 leukemia", "N"]
]}
